- Target Under Test: T1, pGBTE2Fa226-356: GAL4 DNA-binding domain fusion of AtE2Fa amino acids 226-356 (Arabidopsis)
- T1 construct: also called E2F5 dimerisation domain; E2Fa (=E2F5) dimerization domain
- Protocol Description: yeast two-hybrid, growth on His- minimal medium; legend: +, positive interaction
Measured Property: binding result

>>> result("GAL4 transactivation domain fusion of AtDPb 182-385 (prey in pAD-GAL424) (other, not shown: large carriers) GLPRTSLSDIEELKNERLSLRNRIEKKTAYSQELEEQYVGLQNLIQRNEHLYSSGNAPSGGVALPFILVQTRPHATVEVEISEDMQLVHFDFNSTPFELHDDNFVLKTMKFCDQPPQQPNGRNNSQLVCHNFTPENPNKGPSTGPTPQLDMYETHLQSQQHQQHSQLQIIPMPETNNVTSSADTAPVKSPSLPGIMNSSMKPEN")
"binds"
>>> result("GAL4 transactivation domain fusion of AtDPa 42-292 (prey in pAD-GAL424) (other, not shown: large carriers) EKKGQSRTSGGGLRQFSVMVCQKLEAKKITTYKEVADEIISDFATIKQNAEKPLNENEYNEKNIRRRVYDALNVFMALDIIARDKKEIRWKGLPITCKKDVEEVKMDRNKVMSSVQKKAAFLKELREKVSSLESLMSRNQEMVVKTQGPAEGFTLPFILLETNPHAVVEIEISEDMQLVHLDFNSTPFSVHDDAYILKLMQEQKQEQNRVSSSSSTHHQSQHSSAHSSSSSCIASGTSGPVCWNSGSIDTR")
"binds"
>>> result("GAL4 transactivation domain fusion of AtDPb 182-263 (prey in pAD-GAL424) (other, not shown: large carriers) GLPRTSLSDIEELKNERLSLRNRIEKKTAYSQELEEQYVGLQNLIQRNEHLYSSGNAPSGGVALPFILVQTRPHATVEVEI")
"binds"
>>> result("GAL4 transactivation domain fusion of AtDPa 121-292 (prey in pAD-GAL424) (other, not shown: large carriers) IIARDKKEIRWKGLPITCKKDVEEVKMDRNKVMSSVQKKAAFLKELREKVSSLESLMSRNQEMVVKTQGPAEGFTLPFILLETNPHAVVEIEISEDMQLVHLDFNSTPFSVHDDAYILKLMQEQKQEQNRVSSSSSTHHQSQHSSAHSSSSSCIASGTSGPVCWNSGSIDTR")
"binds"
